Measured values drawn from patent US9115142B2 for this set.

target: UniProtKB Q07343; experiment: Scintillation Proximity Assay (SPA) of PDE4B enzymatic activity ([H3]-cAMP cleavage); type: biochemical; conditions: test substance 1 μM; one-hour incubation with [H3]-cAMP and PDE4B at 30° C.
Sequence (Q07343 whole entry, species assumed): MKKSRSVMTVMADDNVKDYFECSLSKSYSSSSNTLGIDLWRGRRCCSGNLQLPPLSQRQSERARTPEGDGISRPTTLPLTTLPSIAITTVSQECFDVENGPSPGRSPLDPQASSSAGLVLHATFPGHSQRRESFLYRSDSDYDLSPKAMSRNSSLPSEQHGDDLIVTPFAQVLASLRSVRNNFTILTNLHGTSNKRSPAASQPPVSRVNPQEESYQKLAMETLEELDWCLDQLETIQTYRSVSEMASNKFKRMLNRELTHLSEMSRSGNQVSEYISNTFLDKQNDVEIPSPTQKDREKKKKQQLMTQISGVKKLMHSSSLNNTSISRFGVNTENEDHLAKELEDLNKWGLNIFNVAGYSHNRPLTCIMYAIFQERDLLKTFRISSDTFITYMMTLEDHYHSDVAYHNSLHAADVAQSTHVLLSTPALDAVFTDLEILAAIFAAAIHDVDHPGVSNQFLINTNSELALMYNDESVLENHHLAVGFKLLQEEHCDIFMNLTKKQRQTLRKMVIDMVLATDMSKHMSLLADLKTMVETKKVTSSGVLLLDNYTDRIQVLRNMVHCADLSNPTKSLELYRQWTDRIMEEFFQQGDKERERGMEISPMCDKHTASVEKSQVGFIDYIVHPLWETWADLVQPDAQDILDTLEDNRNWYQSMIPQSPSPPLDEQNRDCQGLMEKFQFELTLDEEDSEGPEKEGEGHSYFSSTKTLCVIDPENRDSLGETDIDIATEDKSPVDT
Structures can show the parent of a compound that is named as a salt.
propertyMeasured: inhibition at 1 µM (%)
Report as a plain number; the unit % is understood.

1) CN(C)c1nnccc1N1CCN(c2nc3c(c(Nc4cccc(F)c4)n2)[S+]([O-])CC3)CC1 (stereo not shown) :: 97

What measured inhibition at 1 µM goes with COc1cccc2c1nc(N1CCN(c3nc4c(c(Nc5cccc(F)c5)n3)[S+]([O-])CC4)CC1)n2C (stereo not shown) [Example 108, trifluoroacetate] ?
95

Please do the same for [O-][S+]1CCc2nc(N3CCN(c4ccnc(O)c4)CC3)nc(Nc3cccc(F)c3)c21 (stereo not shown) as well.
96

Please do the same for CC(C)[C@H](CO)Nc1nc(N2CCN(c3nc4ccccc4o3)CC2)nc2c1[S+]([O-])CC2 (stereo partly shown) as well.
94

Please do the same for CC(C)[C@H](CO)Nc1nc(N2CCN(c3nc(-c4ccc(F)cc4)cs3)CC2)nc2c1[S+]([O-])CC2 (stereo partly shown) as well.
95

Please do the same for [O-][S+]1CCc2nc(N3CCN(c4nc5ccccc5o4)CC3)nc(Nc3cccc(F)c3)c21 (stereo not shown) as well.
95

Please do the same for [O-][S+]1CCc2nc(N3CCN(c4ccncc4)CC3)nc(NC3CCOCC3)c21 (stereo not shown) [Example 96, trifluoroacetate] as well.
93
